# assay-overview: Cytotoxicity against African green monkey Vero E6 cells assessed as reduction of cell viability measured after 48 hrs by CCK-8 assay
# Type: toxicity, cell-based, Vero C1008
# experimental-parameters: chlorocebus sabaeus
The following compounds are listed with their measured CC50 at 48 h values.

compound: Nc1nc2c(ncn2CCC(CO)CO)c(=O)[nH]1 [PENCICLOVIR]
CC50 at 48 h: > 400 µM

compound: CCN(CC)CCCC(C)Nc1ccnc2cc(Cl)ccc12 (stereo not given) [CHLOROQUINE]
CC50 at 48 h: > 100 µM

compound: NC(=O)c1ncn([C@@H]2O[C@H](CO)[C@@H](O)[C@H]2O)n1 [RIBAVIRIN]
CC50 at 48 h: > 400 µM

compound: NC(=O)c1nc(F)c[nH]c1=O
CC50 at 48 h: > 400 µM

compound: O=C(Nc1ccc([N+](=O)[O-])cc1Cl)c1cc(Cl)ccc1O [NICLOSAMIDE]
CC50 at 48 h: > 35.5 µM

----------
# assay-overview: Cytotoxicity against african green monkey Vero cells
# Assay type: toxicity, cell-based
# experimental-parameters: chlorocebus sabaeus

compound: N=C(N)c1ccc2cc(OC(=O)c3ccc(N=C(N)N)cc3)ccc2c1 [NAFAMOSTAT]
CC50: > 100 µM

----------
# assay-overview: Selectivity index, ratio of CC50 for African green monkey Vero E6 cells to EC50 for antiviral activity against SARS-CoV-2 2019BetaCoV/Wuhan/WIV04/2019
# Assay type: toxicity, Vero C1008
# experimental-parameters: read-out: Selectivity Index
measurement-kind: selectivity ratio

substance-smiles: Nc1nc2c(ncn2CCC(CO)CO)c(=O)[nH]1
measurement-kind: selectivity ratio
value: > 4.17
//
substance-smiles: NC(=O)c1nc(F)c[nH]c1=O
measurement-kind: selectivity ratio
value: > 6.46

----------
pEC50 overview
# System: SARS-CoV-2
# assay-overview: Antiviral activity against SARS-CoV-2 2019BetaCoV/Wuhan/WIV04/2019 infected in African green monkey Vero E6 cells assessed as inhibition of viral replication measured after 48 hrs
# Type: functional, organism-based
# experimental-parameters: Severe acute respiratory syndrome coronavirus 2, 2019BetaCoV/Wuhan/WIV04/2019, Vero C1008, 48 h
pEC50: −log10 of the molar value.
measurement-kind: pEC50

compound: O=C(Nc1ccc([N+](=O)[O-])cc1Cl)c1cc(Cl)ccc1O [NICLOSAMIDE]
value: 5.67
--
compound: CCN(CC)CCCC(C)Nc1ccnc2cc(Cl)ccc12 (configuration not stated)
value: 5.95
